Target: glucocorticoid receptor (GR) (Homo sapiens, UniProt P04150)
Construct: cytosol preparation
Sequence (P04150 whole entry, species assumed): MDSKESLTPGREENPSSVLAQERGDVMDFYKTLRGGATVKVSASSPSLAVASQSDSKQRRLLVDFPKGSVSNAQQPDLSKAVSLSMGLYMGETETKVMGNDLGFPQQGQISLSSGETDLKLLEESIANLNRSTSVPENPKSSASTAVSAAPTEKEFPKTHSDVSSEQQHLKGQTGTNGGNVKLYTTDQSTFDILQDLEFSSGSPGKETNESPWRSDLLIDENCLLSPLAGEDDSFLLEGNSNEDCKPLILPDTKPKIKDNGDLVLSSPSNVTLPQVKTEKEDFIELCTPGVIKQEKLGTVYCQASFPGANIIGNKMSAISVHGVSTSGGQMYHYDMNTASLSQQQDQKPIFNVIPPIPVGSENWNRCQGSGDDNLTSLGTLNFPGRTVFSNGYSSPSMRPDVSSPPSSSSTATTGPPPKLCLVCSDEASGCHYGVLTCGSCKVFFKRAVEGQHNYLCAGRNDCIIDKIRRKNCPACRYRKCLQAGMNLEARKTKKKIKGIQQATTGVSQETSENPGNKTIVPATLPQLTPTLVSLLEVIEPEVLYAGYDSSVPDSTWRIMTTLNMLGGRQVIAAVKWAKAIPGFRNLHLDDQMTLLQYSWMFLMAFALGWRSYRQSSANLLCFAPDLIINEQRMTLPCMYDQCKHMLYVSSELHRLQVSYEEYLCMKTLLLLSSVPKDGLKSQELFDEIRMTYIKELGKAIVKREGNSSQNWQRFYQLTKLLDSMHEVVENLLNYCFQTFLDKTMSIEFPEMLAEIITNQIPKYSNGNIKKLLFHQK
Test: Binding to the glucocorticoid receptor (GR), recombinant receptor in cytosol preparations of Sf9 cells, [3H]-dexamethasone as reference
Conditions: reference [3H]-dexamethasone
property_name: IC50 (nM)
# unit: nM | format: bare number

Worked examples, 3 compounds total:
# compound, IC50, nM
measured = [
    ("COc1ccc(C(Nc2cccc3[nH]c(=O)ccc23)C(O)(CSC)C(F)(F)F)c(F)c1 (stereo not shown) [Example 1]", 6.8),
    ("CCSCC(O)(C(Nc1cc(F)cc2[nH]c(=O)ccc12)c1ccc(OC)c(F)c1Cl)C(F)(F)F (stereo not shown) [Example 4]", 5.7),
    ("COc1ccc(C(Nc2cc(F)cc3[nH]c(=O)ccc23)C(O)(CO)C(F)(F)F)c(Cl)c1F (stereo not shown) [Example 7]", 7.1),
]

Kindly consider the entry below.
Can you look up the measured IC50 of COCC(O)(C(Nc1cc(F)cc2[nH]c(=O)ccc12)c1ccc(OC)c(F)c1Cl)C(F)(F)F (stereo not shown) [Example 5] for me?
3.1
